All figures here come from patent US20210330611A1.

# System: primary rat microglia
# recorded_conditions: rat
Structures can show the parent of a compound that is named as a salt.
Catalogue of Fibrin % cell toxicity readings, one per entry.
Numbers only; they are read as %.

compound	subject_of_test	result_units	recorded_value
CC(=O)Nc1ccc(S(=O)(=O)c2ccc(NC(C)=O)cc2)cc1	primary rat microglia	%	0
CN(C)CC(c1ccc(O)cc1)C1(O)CCCCC1 (centres unmarked)	primary rat microglia	%	1
CC(=O)N1CCN(c2ccc(OCC3COC(Cn4ccnc4)(c4ccc(Cl)cc4Cl)O3)cc2)CC1 (centres unmarked)	primary rat microglia	%	0
Cc1ccc(C(=O)c2ccc(CC(=O)O)n2C)cc1	primary rat microglia	%	0
C1CCC(C(CC2CCCCN2)C2CCCCC2)CC1 (centres unmarked) [Perhexiline maleate, reference compound]	primary rat microglia	%	3
Nc1ccc(S(=O)(=O)c2ccc(N)cc2)cc1	primary rat microglia	%	1
Nc1ccn([C@H]2CC[C@@H](CO)O2)c(=O)n1	primary rat microglia	%	0
Nc1ccc(S(=O)(=O)Nc2nccs2)cc1	primary rat microglia	%	0

So for O=c1[nH]c2ccccc2n1CCCN1CCC(n2c(=O)[nH]c3cc(Cl)ccc32)CC1 , the logged Fibrin % cell toxicity turned out to be 1

So for Clc1ccccc1C(c1ccccc1)(c1ccccc1)n1ccnc1 , the logged Fibrin % cell toxicity turned out to be 1

So for Clc1ccc(COC(Cn2ccnc2)c2ccc(Cl)cc2Cl)c(Cl)c1 (centres unmarked) [Miconazole nitrate, reference compound] , the logged Fibrin % cell toxicity turned out to be 1

So for CC(=O)C1C(=O)C=C(C)OC1=O (centres unmarked) [Dehydroacetic Acid] , the logged Fibrin % cell toxicity turned out to be 0

So for CCCCCCCCCCCCCCCC(=O)OC/C=C(C)/C=C/C=C(C)/C=C/C1=C(C)CCCC1(C)C [Retinyl Palmitate] , the logged Fibrin % cell toxicity turned out to be 0

So for O=C(OCC(O)CO)c1ccccc1Nc1ccnc2cc(Cl)ccc12 (centres unmarked) , the logged Fibrin % cell toxicity turned out to be 1

So for CN1C(C(=O)Nc2ccccn2)=C(O)c2sccc2S1(=O)=O , the logged Fibrin % cell toxicity turned out to be 1

So for O=c1[nH]cnc2c1ncn2[C@H]1CC[C@@H](CO)O1 , the logged Fibrin % cell toxicity turned out to be 1

So for CCCSc1ccc2nc(NC(=O)OC)[nH]c2c1 [Albendazole, reference compound] , the logged Fibrin % cell toxicity turned out to be 1

* * *

# Tested on: fibrin- and LPS-induced microglia activation
# assay_explanation: cells
# Type: cell-based, rat
# recorded_conditions: Table 3; screen at 10 μM
Structures can show the parent of a compound that is named as a salt.
outcome_measure: Quadrant (FIG. 5b)

molecule	outcome_measure	recorded_value
C[C@H]1C[C@H]2[C@@H]3CCC4=CC(=O)C=C[C@]4(C)[C@@]3(F)[C@@H](O)C[C@]2(C)[C@@]1(O)C(=O)CO [Betamethasone, reference compound]	Quadrant (FIG. 5b)	Q2
CN(C)[C@@H]1C(O)=C(C(N)=O)C(=O)[C@@]2(O)C(O)=C3C(=O)c4c(O)ccc(Cl)c4[C@@H](O)[C@H]3C[C@@H]12 [Demeclocycline hydrochloride, reference compound]	Quadrant (FIG. 5b)	Q3
CC[C@]1(O)C[C@@H]2CN(CCc3c([nH]c4ccccc34)[C@@](C(=O)OC)(c3cc4c(cc3OC)N(C)[C@H]3[C@@](O)(C(=O)OC)[C@H](OC(C)=O)[C@]5(CC)C=CCN6CC[C@]43[C@@H]65)C2)C1 [Vinblastine sulfate, reference compound]	Quadrant (FIG. 5b)	Q2
CCN(CC)C(=O)C1(c2ccccc2)CC1CN (centres unmarked) [Milnacipran hydrochloride, reference compound]	Quadrant (FIG. 5b)	Q3
CC(=O)OCC(=O)[C@@]1(O)CC[C@H]2[C@@H]3CCC4=CC(=O)CC[C@]4(C)[C@@]3(F)[C@@H](O)C[C@@]21C [Fludrocortisone acetate, reference compound]	Quadrant (FIG. 5b)	Q2

So for S=C=NCc1ccccc1 [Benzyl isothiocyanate, reference compound] , the logged Quadrant (FIG. 5b) turned out to be Q2

So for CC(=O)OCC(=O)[C@@]1(O)[C@H](OC(C)=O)C[C@H]2[C@@H]3CCC4=CC(=O)C=C[C@]4(C)[C@@]3(F)[C@@H](O)C[C@@]21C [Triamcinolone diacetate, reference compound] , the logged Quadrant (FIG. 5b) turned out to be Q2

So for CC(=O)OCC(=O)[C@@]12N=C(C)O[C@@H]1C[C@H]1[C@@H]3CCC4=CC(=O)C=C[C@]4(C)[C@H]3[C@@H](O)C[C@@]12C [Deflazacort, reference compound] , the logged Quadrant (FIG. 5b) turned out to be Q2

So for C[C@]12C=CC(=O)C=C1CC[C@H]1[C@@H]3C[C@@H](O)[C@](O)(C(=O)CO)[C@@]3(C)C[C@H](O)[C@@]12F [Triamcinolone, reference compound] , the logged Quadrant (FIG. 5b) turned out to be Q2

So for COc1ccccc1N1CCN(CC(O)COc2cccc3ccccc23)CC1 (centres unmarked) [Naftopidil dihydrochloride, reference compound] , the logged Quadrant (FIG. 5b) turned out to be Q3

So for Cc1cccc(N(C)C(=S)Oc2ccc3ccccc3c2)c1 [Tolnaftate, reference compound] , the logged Quadrant (FIG. 5b) turned out to be Q2

* * *

# Tested on: primary rat microglia
# recorded_conditions: rat
outcome_measure: LPS % cell toxicity

Recorded LPS % cell toxicity, per entry:
compound	recorded_value
Cc1c(-c2cnccn2)ssc1=S	0%
C#Cc1cccc(Nc2ncnc3cc(OCCOC)c(OCCOC)cc23)c1	0%
CN1CCC(=C2c3ccccc3CCc3cccnc32)CC1	0%
CCn1cc(C(=O)O)c(=O)c2cc3c(cc21)OCO3	1%
CC(C)(Sc1cc(C(C)(C)C)c(O)c(C(C)(C)C)c1)Sc1cc(C(C)(C)C)c(O)c(C(C)(C)C)c1	0%

So for Nc1nc(N)c2nc(CNc3ccc(C(=O)N[C@@H](CCC(=O)O)C(=O)O)cc3)cnc2n1 , the logged LPS % cell toxicity turned out to be 0%

So for CN1CCN(CC/C=C2/c3ccccc3Sc3ccc(S(=O)(=O)N(C)C)cc32)CC1 , the logged LPS % cell toxicity turned out to be 0%

So for CC(C)C[C@H](NC(=O)[C@H](Cc1ccccc1)NC(=O)c1cnccn1)B(O)O , the logged LPS % cell toxicity turned out to be 56%

So for Cc1ncc([N+](=O)[O-])n1CC(C)O (stereo not drawn) , the logged LPS % cell toxicity turned out to be 2%

* * *

# System: LPS-induced microglia activation
# assay_explanation: Image-based assay of LPS-induced microglia activation (HTS and dose response)
# Assay type: cell-based, rat
# recorded_conditions: Rattus norvegicus, Microglia, primary HTS, 10 μM, LPS-stimulated primary microglia; read-out: LPS % inhibition
Structures can show the parent of a compound that is named as a salt.
outcome_measure: inhibition at 10 µM (%)
Numbers only; they are read as %.

Recorded inhibition at 10 µM, per entry:
compound	inhibition at 10 µM, %
CCCCNc1cc(C(=O)O)cc(S(N)(=O)=O)c1Oc1ccccc1 [Bumetanide]	18
CO/N=C(\C(=O)N[C@@H]1C(=O)N2C(C(=O)O)=C(C[N+]3(C)CCCC3)CS[C@H]12)c1csc(N)n1 [Cefepime Hydrochloride]	16
COc1cc(CNC(=O)CCCC/C=C/C(C)C)ccc1O	9
O=C(O)[C@H]1/C(=C/CO)O[C@@H]2CC(=O)N21 [Clavulanate]	5
C=C[C@H]1C[N@@]2CC[C@H]1C[C@@H]2[C@@H](O)c1ccnc2ccccc12	28

So for CCN(CC)CCNC(=O)c1cc(Br)c(N)cc1OC [Bromopride] , the logged inhibition at 10 µM turned out to be 4

So for CO/N=C(\C(=O)N[C@@H]1C(=O)N2C(C(=O)O)=C(CSc3nnnn3C)CS[C@H]12)c1csc(N)n1 [Cefmenoxime Hydrochloride] , the logged inhibition at 10 µM turned out to be 2

So for CCCCCCNC(=O)n1cc(F)c(=O)[nH]c1=O , the logged inhibition at 10 µM turned out to be 17

* * *

# System: primary rat microglia
# assay_explanation: Cell toxicity (dead cells, size <150 μm2) in coated fibrin (cFib) assay;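 note: share of dead cells sized under 150 µm2 at 10 µM in fibrin-stimulated microglia HTS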
# recorded_conditions: primary HTS, 10 μM, fibrin assay, dead cells size <150 μm2
outcome_measure: Fibrin % cell toxicity (%)
Numbers only; they are read as %.

molecule	outcome_measure	recorded_value
NS(=O)(=O)c1ccc(C(=O)O)cc1 [Carzenide]	Fibrin % cell toxicity	1
O=C1c2ccccc2C(=O)C1c1ccc(Cl)cc1 [Chlorindione]	Fibrin % cell toxicity	1
COc1cc(C(=O)NCCCCCC(=O)O)cc(OC)c1OC [Capobenic Acid]	Fibrin % cell toxicity	1
COc1cc2c(cc1OC)[C@@]13CCN4CC5=CCO[C@H]6CC(=O)N2[C@H]1[C@H]6[C@H]5C[C@H]43 [Brucine]	Fibrin % cell toxicity	1
C=CC1=C(C(=O)O)N2C(=O)[C@@H](NC(=O)/C(=N\O)c3csc(N)n3)[C@H]2SC1 [Cefdinir]	Fibrin % cell toxicity	1
Oc1cc(O)c2c(c1)O[C@H](c1ccc(O)c(O)c1)[C@@H](O)C2 [Cianidanol]	Fibrin % cell toxicity	0

// Fibrin % cell toxicity (primary rat microglia) for O=C([O-])C(O)[C@H](O)[C@@H](O)[C@H](O)[C@H](O)CO.O=C([O-])C(O)[C@H](O)[C@@H](O)[C@H](O)[C@H](O)CO.[Ca+2] (stereo partly shown) [Calcium Gluceptate] = 1

// Fibrin % cell toxicity (primary rat microglia) for CC(C)(Oc1ccc(CCNC(=O)c2ccc(Cl)cc2)cc1)C(=O)O [Bezafibrate] = 0

// Fibrin % cell toxicity (primary rat microglia) for CN1C(=O)CCS(=O)(=O)C1c1ccc(Cl)cc1 (stereo not shown) [Chlomezanone, Chlormezanone] = 1

// Fibrin % cell toxicity (primary rat microglia) for S=C=Nc1ccc(N=C=S)cc1 [Bitoscanate] = 1

// Fibrin % cell toxicity (primary rat microglia) for O=C1CN=C(c2ccccc2Cl)c2cc([N+](=O)[O-])ccc2N1 [Clonazepam] = 0

// Fibrin % cell toxicity (primary rat microglia) for CC1=C(C(=O)O)N2C(=O)[C@@H](NC(=O)[C@H](N)C3=CCC=CC3)[C@H]2SC1 [Cephradine] = 0
